Quick reference for IC50 among some compounds
- target.desc: human SGLT2 (Homo sapiens (Human), UniProt P31639)
- Sequence (P31639 whole entry): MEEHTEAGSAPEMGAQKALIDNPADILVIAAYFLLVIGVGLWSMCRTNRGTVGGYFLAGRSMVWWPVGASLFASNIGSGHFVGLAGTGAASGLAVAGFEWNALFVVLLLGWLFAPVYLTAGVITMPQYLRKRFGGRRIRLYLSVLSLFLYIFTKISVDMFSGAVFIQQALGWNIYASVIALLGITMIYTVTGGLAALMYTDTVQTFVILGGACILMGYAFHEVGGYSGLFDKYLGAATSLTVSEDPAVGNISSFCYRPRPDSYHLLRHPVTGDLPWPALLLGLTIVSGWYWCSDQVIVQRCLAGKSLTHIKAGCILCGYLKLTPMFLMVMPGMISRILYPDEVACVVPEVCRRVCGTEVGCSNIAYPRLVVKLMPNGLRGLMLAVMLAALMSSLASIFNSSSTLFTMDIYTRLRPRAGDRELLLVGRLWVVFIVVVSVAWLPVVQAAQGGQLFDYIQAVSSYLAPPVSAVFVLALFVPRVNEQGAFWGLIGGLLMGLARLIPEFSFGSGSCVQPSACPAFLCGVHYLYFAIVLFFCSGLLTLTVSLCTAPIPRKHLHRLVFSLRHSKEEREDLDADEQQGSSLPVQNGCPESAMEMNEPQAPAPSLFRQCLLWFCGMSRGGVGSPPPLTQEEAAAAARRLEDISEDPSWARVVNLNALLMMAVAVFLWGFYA
- measurement.protocol: Inhibitory effects on human SGLT2 activities (14C-AMG uptake in CHO cells expressing hSGLT2)
- reported.conditions: CHO cells stably expressing hSGLT2, 37° C., 2 h
parameter: IC50 (nM)

> print(dat)
                                   molecule                               target.desc  measured.result
1  CCOc1ccc(Cc2cc3c(cc2Cl)OC[C@@H]2C[C@@H]2COC[C@H]2O[C@@H]3[C@H](O)[C@@H](O)[C@@H]2O)cc1  human SGLT2 (Homo sapiens (Human), UniProt P31639)               14
2  CSc1ccc(Cc2cc3c(cc2Cl)OCCCCOC[C@H]2O[C@@H]3[C@H](O)[C@@H](O)[C@@H]2O)cc1  human SGLT2 (Homo sapiens (Human), UniProt P31639)             1.35
3  O[C@@H]1[C@@H](O)[C@H]2O[C@H](COCCCCCOc3cc(Cl)c(Cc4ccc5c(c4)OCCO5)cc32)[C@H]1O  human SGLT2 (Homo sapiens (Human), UniProt P31639)             1.38
4  CCOc1ccc(Cc2cc3c(cc2Cl)OCCCCCOC[C@H]2O[C@@H]3[C@H](O)[C@@H](O)[C@@H]2O)cc1  human SGLT2 (Homo sapiens (Human), UniProt P31639)            0.899
5  CCc1ccc(Cc2cc3c(cc2Cl)OCCCCOC[C@H]2O[C@@H]3[C@H](O)[C@@H](O)[C@@H]2O)cc1  human SGLT2 (Homo sapiens (Human), UniProt P31639)              1.4
6  CCc1ccc(Cc2cc3c(cc2Cl)OCCCCCCOC[C@H]2O[C@@H]3[C@H](O)[C@@H](O)[C@@H]2O)cc1  human SGLT2 (Homo sapiens (Human), UniProt P31639)              1.4
7  CCc1ccc(Cc2cc3c(cc2Cl)OCCCCCOC[C@H]2O[C@@H]3[C@H](O)[C@@H](O)[C@@H]2O)cc1  human SGLT2 (Homo sapiens (Human), UniProt P31639)             1.38
8  CCOc1ccc(Cc2cc3c(cc2Cl)OCCCCCCOC[C@H]2O[C@@H]3[C@H](O)[C@@H](O)[C@@H]2O)cc1  human SGLT2 (Homo sapiens (Human), UniProt P31639)             3.63
9  CCOc1ccc(Cc2cc3c(cc2Cl)OCCCCOC[C@H]2O[C@@H]3[C@H](O)[C@@H](O)[C@@H]2O)cc1  human SGLT2 (Homo sapiens (Human), UniProt P31639)             2.27
